assay_info: Clearance in rat at 0.5 mg/kg, iv
experimental_context: in vivo
Kind request: treat 50 mL/min/kg as inclusive, so clearance at 50 mL/min/kg or higher is label 1, anything lower is label 0.

For orientation, consider the following solved cases.
{"compound_structure": "CNC(=O)N(c1ccc(S(=O)(=O)Nc2ccon2)cn1)c1cc(F)c(-c2ccc(F)c(OC(F)(F)F)c2)cc1OC", "discrete_label": "label 0"}
{"compound_structure": "CNC(=O)N(c1ccc(S(=O)(=O)Nc2cccnn2)cn1)c1cc(F)c(-c2ccc(F)c(OC(F)(F)F)c2)cc1OC", "discrete_label": "label 0"}
{"compound_structure": "CNC(=O)N(c1ccc(S(=O)(=O)Nc2ccon2)cn1)c1cc(Cl)c(-c2ccc(F)c(OCC(F)(F)F)c2)cc1OC", "discrete_label": "label 1"}
{"compound_structure": "CNC(=O)N(c1ccc(S(=O)(=O)Nc2ccon2)cn1)c1ccc(-c2ccc(Cl)c(C)c2)cc1OC", "discrete_label": "label 0"}

In the following, a different compound is considered.
**Q:** Has `COc1cc(-c2ccc(Cl)c(C)c2)ccc1-n1c(=O)ccc2cc(S(=O)(=O)Nc3ccon3)ccc21` a recorded clearance greater than or equal to 50 mL/min/kg?
**A:** label 0

###

target_entity: Sodium channel protein type 9 subunit alpha (Homo sapiens, UniProt Q15858)
assay_info: Inhibition of human Nav1.7 by PatchXpress assay
Quick list: IC50 per entry.
Give a bare numeral; the unit nM is implied.

Here's what some known entries look like.
{"compound_structure": "COc1cc(-c2ccc(Cl)c(C#N)c2)c(F)cc1-n1c(=O)ccc2cc(S(=O)(=O)Nc3ccon3)ccc21", "IC50 (nM)": 8}
{"compound_structure": "CNC(=O)N(c1ccc(S(=O)(=O)Nc2ncccn2)cn1)c1cc(F)c(-c2cccc(C(F)(F)F)c2)cc1OC", "IC50 (nM)": 130}

**Q:** API: value(readout=IC50, system=Sodium channel protein type 9 subunit alpha (Homo sapiens, UniProt Q15858)) for record `COc1cc(-c2ccc(Cl)c(C)c2)ccc1-n1c(=O)ccc2cc(S(=O)(=O)Nc3ccon3)ccc21`
**A:** 5000

Data credit: ChEMBL document CHEMBL5104138
